assay_overview: Protein binding in Sprague-Dawley rat plasma assessed as free fraction at 3 mg/kg, po or 1 mg/kg, iv measured up to 24 hrs by LC-MS/MS analysis
Assay type: ADME, organism-based
measurement_kind: fraction unbound at 24 h

What measured fraction unbound at 24 h goes with Cc1noc(-c2ccc(-c3ccc(C4(C(=O)O)CC4)cc3)cc2)c1NC(=O)O[C@H](C)c1ccccc1 [BMS-986020] ? 0.002

(1) Cc1nc(-c2nnn(C)c2COC(=O)N(C)CC2CCC2)ccc1O[C@H]1CCC[C@H](C(=O)O)C1
(2) CN(C(=O)OCc1c(-c2ccc(O[C@H]3CCC[C@H](C(=O)O)C3)cn2)nnn1C)C1CCCC1
(3) CCCN(C)C(=O)OCc1c(-c2ccc(O[C@H]3CCC[C@H](C(=O)O)C3)c(C)n2)nnn1C [ADMILPARANT]
Order the records so the highest fraction unbound at 24 h appears first and the lowest last. Put the labels in the order asked and list them. 3, 1, 2
